# System: CEM cells HIV-1 protection, formazan growth assay
# Test name: NCI AIDS Antiviral Assay
# Condition description: measured here: growth of uninfected CEM cells
Measured parameter: IC50 (µM)
Report the figure in µM without appending any unit label.

Asked: Identify measured IC50 associated with CNS(=O)(=O)NNS(=O)(=O)c1ccc(C)cc1
Given back: 145

Asked: Identify measured IC50 associated with OC1=CN=C(C2CC2)Oc2ccccc21
Given back: 117

Asked: Identify measured IC50 associated with CCOC(=O)c1cc(C2(OC)CCN(Cc3ccccc3)C2=O)c(-c2cc(C)no2)[nH]1 (configuration not stated)
Given back: 148

Asked: Identify measured IC50 associated with Cc1ccc(C)n1-c1ccccc1C1SCCCS1
Given back: 195

Asked: Identify measured IC50 associated with CC(NC1=NCCO1)c1ccsc1 (configuration not stated)
Given back: 64.6

Asked: Identify measured IC50 associated with CCOC(=O)C(=CCC1NCCc2c1[nH]c1ccccc21)C(=O)OCC (configuration not stated)
Given back: 12

Asked: Identify measured IC50 associated with O=c1ccc2ccc(O)cc2o1
Given back: 302

Asked: Identify measured IC50 associated with CC12OC(=O)[C@@]3(O)CCC4C(C[C@H]5O[C@]56CC=CC(=O)[C@]46C)C45OC[C@H]6C(=O)O[C@@H]1C[C@@]6(C)[C@H](C4=O)C23O5 (some centres not stated)
Given back: 0.398

Further cases:
Asked: Identify measured IC50 associated with CNC(=O)OCc1nc(N=[N+]=[N-])n(C)c1COC(=O)NC
Given back: 42.7

Asked: Identify measured IC50 associated with CCN(CC)CC(=O)Nc1ccc(Cc2ccc(NC(=O)CN(CC)CC)cc2)cc1
Given back: 16.2

Asked: Identify measured IC50 associated with NC(N)=NS(=O)(=O)c1ccc(Nc2c3ccccc3nc3c(C(=O)NNCCO)cccc23)cc1
Given back: 5.25

Asked: Identify measured IC50 associated with CC12CCC(CC(=O)/C1=C(/Br)I)C2(C)C (configuration not stated)
Given back: 36.3

Asked: Identify measured IC50 associated with Nc1ccc(/C=C/c2ccnc3ccccc23)c(N)c1
Given back: 79.4
